Test system: MDR1-MDCK cell monolayers
Conditions: dog, MDCK-MDR1, 120 min, 5 μM, pH 7.4
PROPERTY NAME: MDCK-MDR1: % Recov B-A (%)

>>> measured_result("Oc1cc(-c2cn[nH]c2)ccc1-c1cnc(O[C@@H]2C[C@H]3CCC(N3)[C@@H]2F)cn1 (single isomer, unassigned)")
"79%"
>>> measured_result("CN(c1cnc(-c2cc(F)c(-c3cn[nH]c3)cc2O)cn1)[C@@H]1CC2N[C@H](C1)CC2(F)F (single isomer, unassigned)")
"63%"
>>> measured_result("CN(c1cnc(-c2ccc(-c3ccn(CF)c(=O)c3)cc2O)cn1)[C@@H]1CC2CC[C@H](N2)[C@@H]1F (single isomer, unassigned)")
"78%"
>>> measured_result("CN(c1cnc(-c2cc3ncn(CC(F)(F)F)c(=O)c3cc2O)cn1)[C@@H]1CC2CCC[C@H](N2)[C@@H]1F (single isomer, unassigned)")
"86%"
>>> measured_result("CN(c1cnc(-c2cc3ncn(CC(F)(F)F)c(=O)c3cc2O)cn1)[C@H]1C[C@@H]2CCC[C@@H](N2)[C@H]1F")
"87%"
>>> measured_result("CN(c1cnc(-c2cc3oc(C(=O)N4CCC4)cc3cc2O)cn1)[C@H]1C[C@@H]2CCC(N2)[C@H]1F (single isomer, unassigned)")
"79%"

---

Test system: MDR1
Experiment: in vitro
Conditions: dog, MDCK-MDR1, pH 7.4, MDCK-MDR1: Papp A-B (10^−6, cm/s)
PROPERTY NAME: Papp A→B at 120 min, 5 μM (nm/s)

>>> measured_result("CN(c1cnc(-c2ccc(-c3cc[nH]c(=O)c3)cc2O)cn1)[C@@H]1CC2COC[C@H](N2)[C@@H]1F (single isomer, unassigned) [Compound 82E1]")
5.1
>>> measured_result("CN(c1cnc(-c2ccc(-c3cnn(C)c3)cc2O)cn1)[C@@H]1C[C@H]2CCC(N2)[C@@H]1F (single isomer, unassigned) [Compound 3E1]")
84.2
>>> measured_result("CN(c1cnc(-c2cc(F)c(-c3cn[nH]c3)cc2O)cn1)[C@@H]1C[C@@]2(C)CC[C@](C)(N2)[C@@H]1F [Compound 57E1]")
59
>>> measured_result("CN(c1cnc(-c2cc(F)c(-c3cnn(CF)c3)cc2O)cn1)[C@@H]1CC2CC[C@H](N2)[C@@H]1F (single isomer, unassigned) [Compound 29E1]")
62.9
>>> measured_result("CN(c1cnc(-c2cc3ncn(CC(F)(F)F)c(=O)c3cc2O)cn1)[C@@H]1CC2CCC[C@H](N2)[C@@H]1F (single isomer, unassigned) [Compound 18E1]")
9.2
>>> measured_result("CNC(=O)c1cc(O)c(-c2cnc(N(C)[C@@H]3CC4CC[C@H](N4)[C@@H]3F)cn2)cc1F (single isomer, unassigned) [Compound 15E1]")
27.4
>>> measured_result("CN(c1cnc(-c2ccc(-c3cnn(C)c3)cc2O)cn1)[C@@H]1C[C@H]2CCC[C@H](N2)[C@@H]1F [Compound 4E1]")
48.9
>>> measured_result("CN(c1cnc(-c2cc3ncn(CC(F)(F)F)c(=O)c3cc2O)cn1)[C@H]1C[C@@H]2CCC[C@@H](N2)[C@H]1F [Compound 18E2]")
13.3
>>> measured_result("CN(c1cnc(-c2ccc(-c3cn[nH]c3)cc2O)cn1)[C@@H]1C[C@H]2CCCC(N2)[C@@H]1F (single isomer, unassigned) [Compound 6E1]")
45.8
>>> measured_result("Oc1cc(-c2cn[nH]c2)c(F)cc1-c1cnc(N(C2CC2)[C@@H]2CC3CC[C@H](N3)[C@@H]2F)cn1 (single isomer, unassigned) [Compound 41E1]")
66.3
>>> measured_result("CN(c1cnc(-c2cc(F)c(-c3cn[nH]c3)cc2O)cn1)[C@H]1C[C@@H]2CCC(N2)[C@H]1F (single isomer, unassigned) [Compound 40E2]")
73.3
>>> measured_result("Cn1ccc(-c2ccc(-c3cnc(N(C4CC4)[C@H]4C[C@@H]5CCC(N5)[C@H]4F)cn3)c(O)c2)cc1=O (single isomer, unassigned) [Compound 53E2]")
16.1

---

System: MDR1
Assay: in vitro
Settings: dog, MDCK-MDR1, pH 7.4, MDCK-MDR1: Papp B-A (10^−6, cm/s)
The label 1.0 is reserved for Papp B→A at 120 min, 5 μM strictly under 20 ×10⁻⁶ cm/s; 0.0 covers values equal to or above it.

>>> label_class("Oc1cc(-n2ccnn2)c(F)cc1-c1cnc(N(C2CC2)[C@@H]2CC3CC[C@H](N3)[C@@H]2F)cn1 (single isomer, unassigned)")
0.0
>>> label_class("Cn1ccc(-c2cc(O)c(-c3cnc(N(C4CC4)[C@@H]4CC5CC[C@H](N5)[C@@H]4F)cn3)cc2F)cc1=O (single isomer, unassigned)")
0.0
>>> label_class("CN(c1cnc(-c2cc(F)c(-c3cnn(C)c3)cc2O)cn1)[C@@H]1CC2N[C@H](C1)CC2(F)F (single isomer, unassigned)")
1.0
>>> label_class("CN(c1cnc(-c2ccc(-c3cc[nH]c(=O)c3)cc2O)cn1)[C@H]1C[C@@H]2COCC(N2)[C@H]1F (single isomer, unassigned)")
0.0
>>> label_class("COc1cc(-c2ccc(-c3cnc(N(C4CC4)[C@@H]4CC5CC[C@H](N5)[C@@H]4F)cn3)c(O)c2)ccn1 (single isomer, unassigned)")
1.0

---

List of MDCK-MDR1: % Recov B-A (%) values.
System: MDR1-MDCK cell monolayers
Conditions: dog, MDCK-MDR1, 120 min, 5 μM, pH 7.4
PROPERTY NAME: MDCK-MDR1: % Recov B-A (%)

>>> measured_result("CN(c1cnc(-c2ccc(-c3cnn(C)c3)cc2O)cn1)[C@@H]1[C@H](F)[C@H]2CCC(N2)[C@@H]1F (single isomer, unassigned)")
63
>>> measured_result("CN(c1cnc(-c2ccc(-c3cn[nH]c3)cc2O)cn1)[C@@H]1CC2COC[C@H](N2)[C@@H]1F (single isomer, unassigned)")
112
>>> measured_result("COc1cc(-c2cc(O)c(-c3cnc(N(C)[C@@H]4CC5N[C@H](C4)CC5(F)F)cn3)cc2F)cnn1 (single isomer, unassigned)")
68
>>> measured_result("CN(C)C(=O)c1cc2cc(O)c(-c3cnc(N(C)[C@H]4CC5CC[C@@H](N5)[C@H]4F)cn3)cc2o1 (single isomer, unassigned)")
93
>>> measured_result("CN(c1cnc(-c2cc3ccc(OCF)nc3cc2O)cn1)[C@H]1C[C@@H]2CCC(N2)[C@H]1F (single isomer, unassigned)")
62
>>> measured_result("Cn1cnc(-c2cc(O)c(-c3cnc(N(C4CC4)[C@H]4C[C@@H]5CCC(N5)[C@H]4F)cn3)cc2F)cc1=O (single isomer, unassigned)")
90
>>> measured_result("Cn1cnc(-c2cc(O)c(-c3cnc(N(C4CC4)[C@@H]4CC5CC[C@H](N5)[C@@H]4F)cn3)cc2F)cc1=O (single isomer, unassigned)")
92
>>> measured_result("CN(c1cnc(-c2ccc(-c3cn[nH]c3)cc2O)cn1)[C@H]1C[C@]2(C)CCC[C@@](C)(N2)[C@H]1F")
65
>>> measured_result("COc1cc(-c2cc(O)c(-c3cnc(N(C4CC4)[C@H]4C[C@@H]5CCC(N5)[C@H]4F)cn3)cc2F)cc(F)n1 (single isomer, unassigned)")
45
>>> measured_result("Oc1cc(-c2cn[nH]c2)ccc1-c1cnc(O[C@H]2CC3CC[C@@H](N3)[C@H]2F)cn1 (single isomer, unassigned)")
82
>>> measured_result("O=c1cc(-c2ccc(-c3cnc(N(C4CC4)[C@H]4C[C@@H]5CCC(N5)[C@H]4F)cn3)c(O)c2)ccn1CF (single isomer, unassigned)")
67

---

Below, each of the compounds is paired with its reported efflux ratio at 120 min, 5 μM value.
Test system: MDR1 (P-gp)
Test: MDCK-MDR1 permeability assay, blood-brain-barrier penetration potential
Details: dog, MDCK-MDR1, pH 7.4, MDCK-MDR1 Efflux Ratio
PROPERTY NAME: efflux ratio at 120 min, 5 μM

>>> measured_result("CN(c1cnc(-c2cc(F)c(-c3cn[nH]c3)cc2O)cn1)[C@@H]1CC2CC(F)(F)[C@@H](C1)N2 (single isomer, unassigned)")
3
>>> measured_result("CN(c1cnc(-c2ccc(-c3cnn(C)c3)cc2O)cn1)[C@H]1C[C@@H]2COCC(N2)[C@H]1F (single isomer, unassigned)")
5
>>> measured_result("COc1cc(-c2ccc(-c3cnc(N(C)[C@@H]4CC5CC[C@H](N5)[C@@H]4F)cn3)c(O)c2)cc(F)n1 (single isomer, unassigned)")
2
>>> measured_result("CN(c1cnc(-c2cc(F)c(-c3cnn(C)c3)cc2O)cn1)[C@H]1C[C@]2(C)CC[C@@](C)(N2)[C@H]1F")
3
>>> measured_result("CN(c1cnc(-c2ccc(-c3cnn(C)c3)cc2O)cn1)[C@@H]1CC2COC[C@H](N2)[C@@H]1F (single isomer, unassigned)")
3
>>> measured_result("COc1cc(-c2ccc(-c3cnc(N(C)[C@@H]4C[C@@]5(C)CCC[C@](C)(N5)[C@@H]4F)cn3)c(O)c2)cnn1")
3
